method.summary: Tmax in CD-1 mouse plasma at 0.1 mg/kg, ip administered as single dose after 24 hrs by UPLC-MS/MS method
Type: ADME, organism-based
endpoint.label: Tmax (min)
Answers are plain numbers, in min.

Given item `Cc1oc(-c2ccc(Cl)c(Cl)c2)nc1CN1CCC(C(=O)NCCCN2C[C@H](C)C[C@H](C)C2)CC1` , the value recorded as its Tmax is 4.98

* * *

method.summary: Ratio of AUClast in CD1 mouse liver to plasma at 10 mg/kg, ip administered as single dose after 24 hrs
Format: ADME, organism-based
experimental.setup: CD-1, mouse, read-out: Ratio AUC
endpoint.label: Kp at 24 h
Numbers only.

Given item `Cc1oc(-c2ccc(Cl)c(Cl)c2)nc1CN1CCC(C(=O)NCCCN2C[C@H](C)C[C@H](C)C2)CC1` , the value recorded as its Kp at 24 h is 41

* * *

method.summary: Cmax in CD-1 mouse plasma at 10 mg/kg, ip administered as single dose after 24 hrs by UPLC-MS/MS method
Assay type: ADME, organism-based
Design: dose 10 mg/kg, route intraperitoneal
endpoint.label: Cmax

Given item `Cc1oc(-c2ccc(Cl)c(Cl)c2)nc1CN1CCC(C(=O)NCCCN2C[C@H](C)C[C@H](C)C2)CC1` , the value recorded as its Cmax is 4.74 µM

* * *

method.summary: Ratio of AUClast in CD-1 mouse liver to plasma at 0.1 mg/kg, ip administered as single dose after 24 hrs
Format: ADME, organism-based
experimental.setup: read-out: Ratio AUC
endpoint.label: Kp at 24 h
One number for each entry.

Given item `Cc1oc(-c2ccc(Cl)c(Cl)c2)nc1CN1CCC(C(=O)NCCCN2C[C@H](C)C[C@H](C)C2)CC1` , the value recorded as its Kp at 24 h is 399

* * *

method.summary: Ratio of AUClast in CD-1 mouse liver to plasma at 0.1 mg/kg, ip administered as single dose after […]
Format: ADME, organism-based
experimental.setup: read-out: Ratio AUC
endpoint.label: Kp at […]
One number for each entry.

Given item `Cc1oc(-c2ccc(Cl)c(Cl)c2)nc1CN1CCC(C(=O)NCCCN2C[C@H](C)C[C@H](C)C2)CC1` , the value recorded as its Kp at […] is 448

* * *

method.summary: Drug uptake in CD-1 mouse liver at 0.1 mg/kg, ip administered as single dose after 5 mins by UPLC-MS/MS method
Assay type: ADME, organism-based
experimental.setup: read-out: Drug uptake
endpoint.label: concentration at 5 min

Given item `Cc1oc(-c2ccc(Cl)c(Cl)c2)nc1CN1CCC(C(=O)NCCCN2C[C@H](C)C[C@H](C)C2)CC1` , the value recorded as its concentration at 5 min is 390 nM

* * *

method.summary: Permeability of the compound by PAMPA
Format: physicochemical
experimental.setup: read-out: permeability
Lab note: cut-off is 200 ×10⁻⁶ cm/s. Strictly less in Papp is true. Exactly 200 ×10⁻⁶ cm/s or more is false.

Solved cases below.
{"molecule": "Cc1ccc(-c2nc(CN3CCC(C(=O)NCCCN4C[C@H](C)C[C@H](C)C4)CC3)c(C)o2)cc1", "class.label": "false"}
{"molecule": "CC[C@@H]1C[C@H](CC)CN(CCCNC(=O)C2CCN(Cc3nc(-c4c(F)cccc4F)oc3C)CC2)C1", "class.label": "true"}

Then this molecule:
Request: Does Cc1ccccc1-c1nc(CN2CCC(C(=O)NCCCN3C[C@H](C)C[C@@H](C)C3)CC2)c(C)o1 (racemic) have Papp strictly under 200 ×10⁻⁶ cm/s?
Response: false

* * *

method.summary: AUClast in CD-1 mouse liver at 10 mg/kg, ip administered as single dose after 24 hrs by UPLC-MS/MS method
Format: ADME, organism-based
endpoint.label: AUC(0-t) at 24 h

Given item `Cc1oc(-c2ccc(Cl)c(Cl)c2)nc1CN1CCC(C(=O)NCCCN2C[C@H](C)C[C@H](C)C2)CC1` , the value recorded as its AUC(0-t) at 24 h is 719 µM·h

* * *

method.summary: Kinetic solubility of the compound in pH 7.4 phosphate buffer
Type: physicochemical
experimental.setup: read-out: Kinetic_solubility
For each of the molecules below, state its solubility kinetic.
Numbers only, in µg/mL.

These solved cases illustrate the format of a correct answer.
{"molecule": "CCc1ccccc1-c1nc(CN2CCC(C(=O)NCCCN3C[C@H](C)C[C@H](C)C3)CC2)c(C)o1", "endpoint.label": "solubility kinetic", "quantitative.result": 55.9}
{"molecule": "Cc1ccccc1-c1nc(CN2CCC(C(=O)NCCCN3CCCC(CC(C)C)C3)CC2)c(C)o1 (racemic)", "endpoint.label": "solubility kinetic", "quantitative.result": 54.9}

Please report solubility kinetic for every entry that follows.
1. Cc1cccc(C)c1-c1nc(CN2CCC(C(=O)NCCCN3C[C@H](C)C[C@H](C)C3)CC2)c(C)o1
2. Cc1oc(-c2c3ccccc3cc3ccccc23)nc1CN1CCC(C(=O)NCCCN2C[C@H](C)C[C@H](C)C2)CC1

Response:
55.9
62.1

* * *

For each of the molecules below, state its solubility kinetic.
method.summary: Kinetic solubility of the compound in pH 7.4 phosphate buffer
Format: physicochemical
experimental.setup: read-out: Kinetic_solubility

These solved cases illustrate the format of a correct answer.
{"molecule": "Cc1ccccc1-c1nc(CN2CCC(C(=O)NCCCN3CCCC(C)C3)CC2)c(C)o1 (racemic)", "solubility kinetic": "> 67 µg/mL"}
{"molecule": "Cc1ccccc1-c1nc(CN2CCC(C(=O)NCCCN3C[C@H](C)C[C@H](C)C3)CC2)c(C)o1", "solubility kinetic": "53.9 µg/mL"}
{"molecule": "Cc1ccccc1-c1nc(CN2CCC(C(=O)NCCCN3CC4CCCC(C4)C3)CC2)c(C)o1", "solubility kinetic": "> 71 µg/mL"}
{"molecule": "Cc1ccccc1-c1nc(CN2CCC(C(=O)NCCCN3CCC(C(C)C)CC3)CC2)c(C)o1", "solubility kinetic": "> 71 µg/mL"}

Next, consider the following molecule.
Given item `Cc1oc(-c2c(F)cccc2F)nc1CN1CCC(C(=O)NCCCN2C[C@H](C)C[C@H](C)C2)CC1` , the value recorded as its solubility kinetic is > 72 µg/mL

* * *

method.summary: Cmax in CD-1 mouse liver at 1 mg/kg, ip administered as single dose after 24 hrs by UPLC-MS/MS method
Format: ADME, organism-based
Parameters: dose 1 mg/kg, route intraperitoneal
endpoint.label: Cmax (µM)
One number for each entry, in µM.

Given item `Cc1oc(-c2ccc(Cl)c(Cl)c2)nc1CN1CCC(C(=O)NCCCN2C[C@H](C)C[C@H](C)C2)CC1` , the value recorded as its Cmax is 9.82

* * *

method.summary: Kinetic solubility of the compound in pH 7.4 phosphate buffer
Type: physicochemical
experimental.setup: read-out: Kinetic_solubility
endpoint.label: solubility kinetic

{"compound": "Cc1ccccc1-c1nc(CN2CCC(C(=O)NCCCN3CCC(C)CC3)CC2)c(C)o1", "solubility kinetic": "> 0.067 mg/mL"}
{"compound": "Cc1ccccc1-c1nc(CN2CCC(C(=O)NCCCN3CCCC(C(C)C)C3)CC2)c(C)o1 (racemic)", "solubility kinetic": "> 0.071 mg/mL"}
{"compound": "Cc1cccc(F)c1-c1nc(CN2CCC(C(=O)NCCCN3C[C@H](C)C[C@H](C)C3)CC2)c(C)o1", "solubility kinetic": "> 0.072 mg/mL"}
{"compound": "Cc1cccc(Cl)c1-c1nc(CN2CCC(C(=O)NCCCN3C[C@H](C)C[C@H](C)C3)CC2)c(C)o1", "solubility kinetic": "> 0.074 mg/mL"}
{"compound": "Cc1ccccc1-c1nc(CN2CCC(C(=O)NCCCN3CCOCC3)CC2)c(C)o1", "solubility kinetic": "> 0.065 mg/mL"}
{"compound": "Cc1ccc(-c2nc(CN3CCC(C(=O)NCCCN4C[C@H](C)C[C@H](C)C4)CC3)c(C)o2)cc1C", "solubility kinetic": "> 0.071 mg/mL"}

Please report solubility kinetic for every entry that follows.
1. Cc1ccccc1-c1nc(CN2CCC(C(=O)NCCCN3CCC(C)(C)CC3)CC2)c(C)o1
2. Cc1ccc(-c2nc(CN3CCC(C(=O)NCCCN4C[C@H](C)C[C@H](C)C4)CC3)c(C)o2)cc1
3. Cc1ccccc1-c1nc(CN2CCC(C(=O)NCCCN3[C@H](C)CCC[C@@H]3C)CC2)c(C)o1
4. Cc1cccc(Cl)c1-c1nc(CN2CCC(C(=O)NCCCN3CCCC(C)C3)CC2)c(C)o1 (racemic)

Response:
["> 0.069 mg/mL", "> 0.069 mg/mL", "> 0.069 mg/mL", "0.0526 mg/mL"]

* * *

method.summary: Tmax in CD-1 mouse liver at 1 mg/kg, ip administered as single dose after 24 hrs by UPLC-MS/MS method
Format: ADME, organism-based
endpoint.label: Tmax
Output should be the measured figure followed by the unit it is expressed in.

Given item `Cc1oc(-c2ccc(Cl)c(Cl)c2)nc1CN1CCC(C(=O)NCCCN2C[C@H](C)C[C@H](C)C2)CC1` , the value recorded as its Tmax is 4 h
